Tested on: MDA-MB-435 melanoma
Assay summary: NCI-60 one-dose screen, 48 h (100 = growth as untreated, 0 = no growth, -100 = all killed)
Experimental setup: 10 µM unless noted
Compounds without any hit were thinned out: in the full panel of roughly 83,000, 20% have a hit.
Recorded metric: growth (%)
Only the number, expressed in %, is required.

Examples with answers:
- Molecule: "Cc1cc(C(=O)O)c(N)c(C)n1"
  growth (%): 107
- Molecule: "COc1cc(-c2cc(/C=C3\\CCCCC3=O)[nH]n2)cc(OC)c1OC"
  growth (%): 102
- Molecule: "CC/C(=C(\\c1ccc(O)cc1)c1ccc(OCCN(C)CCN(C)C(=O)CCC(=O)c2c(C)[nH]c(/C=C3\\N=C(c4ccc[nH]4)C=C3OC)c2C)cc1)c1ccccc1"
  growth (%): 63.8
- Molecule: "Nc1ccc(S(=O)(=O)c2ccc(Cl)cc2)cc1"
  growth (%): 121
- Molecule: "COc1cccc2cc(-c3cc4ccccc4[nH]3)/c(=N/C(=S)Nc3ccccc3)oc12"
  growth (%): 87.9

Tested on MDA-MB-435 melanoma, the item O=C(CCCn1c(=O)c2sc3ccccc3c2n2nnc(-c3ccccc3)c12)NCCc1cnc[nH]1 showed growth equal to -49.9

Observed growth on MDA-MB-435 melanoma, entry O=C(c1ccccc1)C(Cl)C(Cl)c1ccccc1 (stereo not given) , equals 33.7

Lab note: molecule CCn1cc(C(=O)O)c(=O)c2cc(F)c(N3CCN(S(=O)(=O)c4c(C)cc(C)cc4C)CC3)cc21 tested on MDA-MB-435 melanoma; recorded growth was 89.1

Tested on MDA-MB-435 melanoma: Cc1cc2c(c(=O)o1)C(c1ccc(OC(=O)N3CCOCC3)cc1)C(C#N)=C(N)O2 (stereo not given) . Observed growth: 105

Lab entry: MDA-MB-435 melanoma assay, molecule O=C1N=C(c2c(-c3[nH]c(=O)c4ccc(Br)cc4c3O)c(O)c3ccccc3c2O)C(=O)c2cc(Br)ccc21 , growth = -63.4

Measured growth for this entry O=C(N/N=C/c1c(Cl)cccc1Cl)c1ccccc1Nc1ccnc(C(F)(F)F)c1 on MDA-MB-435 melanoma: 82.9

Form field growth for item COc1cc2c(cc1OC)C1(C)N(CC2)C(=O)OC1(C)C (stereo not given) on MDA-MB-435 melanoma: 113

Summary line: C[N+](C)(C)c1ccc(CC2c3ccccc3-c3ccccc32)cc1 , MDA-MB-435 melanoma, reported growth = 90.4

Reading of growth for NS(=O)(=O)c1ccc(CN2C(=O)c3cccc4cccc(c34)C2=O)cc1 with MDA-MB-435 melanoma: 114

Entry CC(=O)Nc1ccc(S(=O)(=O)N2C(=O)CCC2C(=O)Nc2ccc(Br)cc2)cc1 (stereo not given) , MDA-MB-435 melanoma data, growth value: 27.6

The molecule COc1ccc(/C=C/C(=O)OCC(=O)NNC(=O)c2ccccc2)cc1OC , tested on MDA-MB-435 melanoma, showed growth of 104

Item CCSc1nnc(Nc2ccc(C(C)C)cc2)s1 ; assay system MDA-MB-435 melanoma; growth reported as 86.7

Response field growth (MDA-MB-435 melanoma) for item C=C1C(=O)O[C@H]2[C@H](O)[C@@H](C)CCC/C(C)=C/CC[C@@]3(C)O[C@@H]3C[C@@H]12 : 94.4

The measured growth that COc1ccc(C2CC(c3cccs3)=NN2c2ccc(S(=O)(=O)NC(=O)Nc3ccc(C)cc3)cc2)cc1 (stereo not given) showed for MDA-MB-435 melanoma is 61.9

Summary line: N=C(N)c1ccc(-c2ccc(-c3ccc(Cl)cc3)o2)nc1 , MDA-MB-435 melanoma, reported growth = -84.5

Value source: PubChem BioAssay (NCI)
